Data provenance: ChEMBL document CHEMBL1150429

biological target: D-amino-acid oxidase (Sus scrofa, UniProt P00371)
Sequence (P00371 whole entry): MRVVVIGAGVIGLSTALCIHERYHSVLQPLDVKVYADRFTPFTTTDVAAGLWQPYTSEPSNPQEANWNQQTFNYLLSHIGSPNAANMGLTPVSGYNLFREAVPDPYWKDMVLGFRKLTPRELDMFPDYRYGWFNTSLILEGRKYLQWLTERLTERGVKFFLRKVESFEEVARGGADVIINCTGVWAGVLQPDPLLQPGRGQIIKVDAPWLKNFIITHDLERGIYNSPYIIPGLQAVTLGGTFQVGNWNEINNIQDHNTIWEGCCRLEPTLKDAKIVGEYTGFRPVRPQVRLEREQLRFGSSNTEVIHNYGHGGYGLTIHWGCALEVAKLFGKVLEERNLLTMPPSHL
pIC50: −log10 of the molar value.
We use 6 as the dividing line for pIC50: on or above the line is Criterion met, below is Criterion not met.

MOL	CLASS_LABEL
Cc1cccc2c(O)noc12	Criterion not met
Oc1noc2c(F)cccc12	Criterion not met
Oc1noc2cccc(F)c12	Criterion not met
Oc1noc2ccc(Br)cc12	Criterion met
NCc1cc(=O)[nH]o1	Criterion not met
Cc1c(C[C@H](N)C(=O)O)o[nH]c1=O	Criterion not met
Oc1noc2c(F)c(C(F)(F)F)ccc12	Criterion not met
CCOc1ccc2c(O)noc2c1	Criterion not met
COc1noc2cc(Cl)ccc12	Criterion not met
O=c1[nH]oc2ccc([N+](=O)[O-])cc12	Criterion not met
Oc1noc2cc(F)ccc12	Criterion met
